# System Name: T1, human LAP-TGFB1 Fc fusion (human)
# T1 construct: also called human LAP-TGFβ1-Fc; human LAP-TGFβ-Fc isoform 1
# T1 sequence (chain, as listed by the source limits assumed): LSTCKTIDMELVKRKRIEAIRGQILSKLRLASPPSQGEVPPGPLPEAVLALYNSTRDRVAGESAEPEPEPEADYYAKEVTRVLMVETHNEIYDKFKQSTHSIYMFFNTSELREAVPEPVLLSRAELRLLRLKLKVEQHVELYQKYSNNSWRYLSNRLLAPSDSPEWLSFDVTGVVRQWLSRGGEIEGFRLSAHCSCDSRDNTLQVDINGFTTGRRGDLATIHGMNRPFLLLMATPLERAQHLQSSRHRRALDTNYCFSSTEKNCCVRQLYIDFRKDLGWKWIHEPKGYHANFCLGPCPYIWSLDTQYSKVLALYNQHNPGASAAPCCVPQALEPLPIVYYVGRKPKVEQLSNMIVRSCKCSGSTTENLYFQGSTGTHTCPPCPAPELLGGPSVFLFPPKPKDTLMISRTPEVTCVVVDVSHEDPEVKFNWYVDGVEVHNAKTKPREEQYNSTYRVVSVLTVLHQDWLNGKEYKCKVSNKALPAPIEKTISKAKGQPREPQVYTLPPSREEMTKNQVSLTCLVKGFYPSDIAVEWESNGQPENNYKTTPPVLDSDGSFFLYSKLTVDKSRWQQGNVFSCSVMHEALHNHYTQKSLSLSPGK
# Method Summary: BLI off-rate screen
Task for the reader: assign each of the following binders its reported Fold change.

Query: Look up Fold change: VL L94D (32BIT) (Fab, V domains shown, Heavy chain: parental 20E6 Fab HC, implied) VH: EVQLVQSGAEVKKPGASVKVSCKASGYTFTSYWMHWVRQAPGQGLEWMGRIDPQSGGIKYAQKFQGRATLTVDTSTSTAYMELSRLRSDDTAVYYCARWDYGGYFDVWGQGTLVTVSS VL: DIQMTQSPSSLSASVGDRVTITCRASQDITNYLNWYQQKPGKAVKLLIYYTSRLHSGVPSRFSGSGSGTDYTLTISSLQPEDFATYFCQQGDTDPWTFGQGTKLEIKR
Result: 0.7 fold

Query: Look up Fold change: VL T30E (36BIT) (Fab, V domains shown, Heavy chain: parental 20E6 Fab HC, implied) VH: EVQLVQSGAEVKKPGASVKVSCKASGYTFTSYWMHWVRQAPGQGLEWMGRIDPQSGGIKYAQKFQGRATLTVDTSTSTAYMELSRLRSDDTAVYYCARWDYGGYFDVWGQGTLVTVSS VL: DIQMTQSPSSLSASVGDRVTITCRASQDIENYLNWYQQKPGKAVKLLIYYTSRLHSGVPSRFSGSGSGTDYTLTISSLQPEDFATYFCQQGDTLPWTFGQGTKLEIKR
Result: 1 fold

Query: Look up Fold change: VH H35K (30BIT) (Fab, V domains shown, Light chain: parental 20E6 LC, implied) VH: EVQLVQSGAEVKKPGASVKVSCKASGYTFTSYWMKWVRQAPGQGLEWMGRIDPQSGGIKYAQKFQGRATLTVDTSTSTAYMELSRLRSDDTAVYYCARWDYGGYFDVWGQGTLVTVSS VL: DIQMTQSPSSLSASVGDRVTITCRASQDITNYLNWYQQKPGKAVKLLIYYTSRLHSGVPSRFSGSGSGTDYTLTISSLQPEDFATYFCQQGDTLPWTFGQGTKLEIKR
Result: 0.8 fold
